The entries below come with measured SPOT peptide array binding signal intensity values attached.
# Test Target: AgSho1
# Assay Explanation: SPOT peptide array binding signal intensity (averaged, normalized) (arbitrary units (background-subtracted, floor 0; scale differs between SH3 domains)); higher = stronger binding of the SH3 domain to the peptide
Measured Metric: SPOT peptide array binding signal intensity

[[record]]
binder = "LPPPPPPPPPPPLPQ"
inequality_symbol = "≤"
quantitative_result = 0

[[record]]
binder = "APKHAPPPVPNETDN"
inequality_symbol = "≤"
quantitative_result = 0

[[record]]
binder = "HGKRRAPLLLAKLDV"
inequality_symbol = "="
quantitative_result = 6

[[record]]
binder = "IAPIPMPKPNPTHIS"
inequality_symbol = "="
quantitative_result = 32

[[record]]
binder = "ATKSASPTLPTRRSR"
inequality_symbol = "≤"
quantitative_result = 0

[[record]]
binder = "SAPDIPPRSPNRNAH"
inequality_symbol = "≤"
quantitative_result = 0

[[record]]
binder = "QPWTDQFEKLEKEVS"
inequality_symbol = "≤"
quantitative_result = 0

[[record]]
binder = "RSLRKRPTSPSISGS"
inequality_symbol = "="
quantitative_result = 80.5

[[record]]
binder = "HRRRRVFSIPSLKSI"
inequality_symbol = "="
quantitative_result = 168

[[record]]
binder = "AGKRRLPLVRFKASD"
inequality_symbol = "="
quantitative_result = 218

[[record]]
binder = "WTQRRGPLVVYAEDN"
inequality_symbol = "="
quantitative_result = 4

[[record]]
binder = "EQEEIAPSLPSRNSI"
inequality_symbol = "≤"
quantitative_result = 0

[[record]]
binder = "LASNSPPVYPKRIRH"
inequality_symbol = "≤"
quantitative_result = 0

[[record]]
binder = "NHSRSLFSLPGNQQS"
inequality_symbol = "="
quantitative_result = 64

[[record]]
binder = "DKKTKPTPPPKPSHL"
inequality_symbol = "="
quantitative_result = 45

[[record]]
binder = "ERPKRRAPPPVPKKP"
inequality_symbol = "="
quantitative_result = 83

[[record]]
binder = "NVLRKILEIPLHSFS"
inequality_symbol = "≤"
quantitative_result = 0

[[record]]
binder = "FPPKRKPLLRPQRSD"
inequality_symbol = "="
quantitative_result = 45

[[record]]
binder = "VQKRKLPLPGSIASA"
inequality_symbol = "="
quantitative_result = 1.5

[[record]]
binder = "LRWRHKFFLPAIAAI"
inequality_symbol = "="
quantitative_result = 32

[[record]]
binder = "NIKVLLNPKLGKPVK"
inequality_symbol = "="
quantitative_result = 108

[[record]]
binder = "YRRKSIPFAPHQITA"
inequality_symbol = "="
quantitative_result = 16.5

[[record]]
binder = "GRSRLFPHSPLGRSS"
inequality_symbol = "="
quantitative_result = 52.8

[[record]]
binder = "QRIRKIPGIPLMSVG"
inequality_symbol = "="
quantitative_result = 104

[[record]]
binder = "KTRLRPAFIQQLWSS"
inequality_symbol = "="
quantitative_result = 12

[[record]]
binder = "VPVAPPPPPASLGQS"
inequality_symbol = "≤"
quantitative_result = 0

[[record]]
binder = "SSTPTTPERPKRKSG"
inequality_symbol = "≤"
quantitative_result = 0

[[record]]
binder = "KNPRRQLQIPRQQPS"
inequality_symbol = "≤"
quantitative_result = 0

[[record]]
binder = "YHSRRHPLALGFKYV"
inequality_symbol = "="
quantitative_result = 26

[[record]]
binder = "QHQQRQPKRPKRYSL"
inequality_symbol = "="
quantitative_result = 12

